Test system: HL-60(TB)
test: NCI one-dose SRB assay (Leukemia)
Assay type: cell-based, human
study conditions: 1.00E-5 Molar
Hi! Just check whether Growth Percent is below 60%. Below gives Criterion met, equal or above gives Criterion not met.

Does this compound meet the criterion Growth Percent < 60%? COc1ccc(-c2ccc(NC(=O)Nc3ccc(Cl)cc3)c(C)n2)cc1 [Compound 8d]
Criterion not met

Confirm or reject: Growth Percent of COc1ccc(NC(=O)Nc2ccc(-c3ccc(OC)c(OC)c3)nc2C)cc1 [Compound 8n] lies strictly below 60%
Criterion not met

Is it true that Growth Percent reported for COc1ccc(-c2ccc(NC(=O)Nc3ccc(Cl)c(C(F)(F)F)c3)c(C)n2)cc1 [Compound 8e] is less than 60%?
Criterion met

API: query returns whether the compound falls strictly under 60% in Growth Percent. Query: COc1ccc(-c2ccc(NC(=O)Nc3cccc(Cl)c3)c(C)n2)cc1OC [Compound 8j]
Criterion not met

Here's an entry: COc1ccc(-c2ccc(NC(=O)Nc3cccc(C(F)(F)F)c3)c(C)n2)cc1 [Compound 8b] . Is its Growth Percent below 60%?
Criterion met

Item COc1cccc(NC(=O)Nc2ccc(-c3ccc(OC)c(OC)c3)nc2C)c1 [Compound 8m] : Growth Percent beneath 60%, strictly?
Criterion not met

* * *

System: KM12
test: NCI one-dose SRB assay (Colon Cancer)
Format: cell-based, human
study conditions: KM12, 1.00E-5 Molar
Would you kindly list Growth Percent for each of these compounds?
Report only the number, with the unit % understood.

Dear colleague, I am looking for the recorded Growth Percent of the following compound: COc1ccc(-c2ccc(NC(=O)Nc3cccc(Cl)c3)c(C)n2)cc1OC [Compound 8j]
78.93

Given the entry COc1ccc(NC(=O)Nc2ccc(-c3ccc(OC)c(OC)c3)nc2C)cc1 [Compound 8n] , report its measured Growth Percent.
45.29

Entry COc1ccc(-c2ccc(NC(=O)Nc3cccc(C(F)(F)F)c3)c(C)n2)cc1OC [Compound 8i] has what Growth Percent?
66.00

Give the measured Growth Percent of COc1ccc(-c2ccc(NC(=O)Nc3ccc(Cl)cc3)c(C)n2)cc1 [Compound 8d] .
93.09

Growth Percent lookup needed for COc1cccc(NC(=O)Nc2ccc(-c3ccc(OC)c(OC)c3)nc2C)c1 [Compound 8m] , thanks.
96.43

Bench note: what Growth Percent did COc1ccc(-c2ccc(NC(=O)Nc3ccc(Cl)c(C(F)(F)F)c3)c(C)n2)cc1 [Compound 8e] show?
37.36

So what's the measured Growth Percent for this one? COc1ccc(-c2ccc(NC(=O)Nc3cccc(C(F)(F)F)c3)c(C)n2)cc1 [Compound 8b]
45.61

* * *

System: NCI 58 cell line panel
test: NCI one-dose SRB assay, whole panel / subpanel summary
Format: cell-based, human
study conditions: Homo sapiens; 10 μM, one dose; read-out: mean inhibition (mean % growth inhibition over NCI 58 cell line panel)
Description: The structures of all the newly prepared pyridine-ureas 8a–n were submitted to the National Cancer Institute (NCI) Developmental Therapeutic Program. Eight compounds 8b, 8d, 8e, 8i, 8j and 8l–n were selected to be examined for their in vitro growth inhibitory activity. The anticancer assays were carried out according to the protocol of the Drug Evaluation Branch, NCI, Bethesda. […]
outcome measure: inhibition at 10 µM (%)
Supply the numeric figure in %, leaving out any unit text.

Recorded inhibition at 10 µM of COc1ccc(-c2ccc(NC(=O)Nc3ccc(Cl)cc3)c(C)n2)cc1 , please.
14

Value lookup for inhibition at 10 µM; key = COc1ccc(-c2ccc(NC(=O)Nc3ccc(Cl)c(C(F)(F)F)c3)c(C)n2)cc1
49

Recorded inhibition at 10 µM for COc1cccc(NC(=O)Nc2ccc(-c3ccc(OC)c(OC)c3)nc2C)c1 , please?
8

I'd like to know its inhibition at 10 µM. The compound in question is COc1ccc(-c2ccc(NC(=O)Nc3cccc(C(F)(F)F)c3)c(C)n2)cc1
43

* * *

Test system: U251
test: NCI one-dose SRB assay (CNS Cancer)
Format: cell-based, human
study conditions: U251, 1.00E-5 Molar
Decision: Growth Percent beneath 80% gives y; Growth Percent meeting or exceeding 80% gives n.

Given COc1ccc(NC(=O)Nc2ccc(-c3ccc(OC)c(OC)c3)nc2C)cc1 [Compound 8n] , is recorded Growth Percent strictly lower than 80%?
y

Criterion: Growth Percent strictly below 80%. Is it met by COc1ccc(-c2ccc(NC(=O)Nc3cccc(Cl)c3)c(C)n2)cc1OC [Compound 8j] ?
n

Check if Growth Percent falls below 80% for COc1ccc(-c2ccc(NC(=O)Nc3ccc(Cl)c(C(F)(F)F)c3)c(C)n2)cc1 [Compound 8e] .
y

API: query returns whether the compound falls strictly under 80% in Growth Percent. Query: COc1ccc(-c2ccc(NC(=O)Nc3ccc(Cl)cc3)c(C)n2)cc1 [Compound 8d]
y

Growth Percent strictly < 80% for this compound? COc1cccc(NC(=O)Nc2ccc(-c3ccc(OC)c(OC)c3)nc2C)c1 [Compound 8m]
n

Say whether its Growth Percent is strictly beneath 80%. Entry: COc1ccc(-c2ccc(NC(=O)Nc3cccc(C(F)(F)F)c3)c(C)n2)cc1OC [Compound 8i]
y

Does the reported Growth Percent of the following compound sit strictly below 80%? COc1ccc(-c2ccc(NC(=O)Nc3cccc(C(F)(F)F)c3)c(C)n2)cc1 [Compound 8b]
y

* * *

Test system: breast cancer MCF-7 cell line
test: In vitro anti-proliferative activity, MTT assay
Assay type: cell-based, human
study conditions: Homo sapiens, MCF7, 48 h, MCF-7, MTT, 48 h of incubation; read-out: IC50 48 h
Procedure: The in vitro anti-proliferative activity of the newly prepared pyridine-ureas 8a–n was examined against breast cancer MCF-7 cell line. The assay was carried out, as triplicates, utilizing the 3-(4,5-dimethylthiazol-2-yl)-2,5-diphenyltetrazolium bromide (MTT) colorimetric assay as described by T. Mosmann. Doxorubicin and Sorafenib were included in this assay as a reference drug. […]
Cut-off 10 µM on IC50: below means Yes, at or above means No.

Regarding COc1ccc(-c2ccc(NC(=O)Nc3ccc(Cl)cc3)c(C)n2)cc1OC , kindly confirm whether its IC50 is beneath 10 µM.
Yes

Take the molecule COc1ccc(-c2ccc(NC(=O)Nc3cccc(Cl)c3)c(C)n2)cc1 and say whether its IC50 is less than 10 µM.
Yes

Quick check: IC50 of COc1cccc(NC(=O)Nc2ccc(-c3ccc(OC)c(OC)c3)nc2C)c1 under 10 µM?
No

Decide: IC50 of COc1ccc(-c2ccc(NC(=O)Nc3ccccc3)c(C)n2)cc1 strictly below 10 µM?
Yes

* * *

System: HCT-15
test: NCI one-dose SRB assay (Colon Cancer)
Format: cell-based, human
study conditions: Homo sapiens; HCT-15, 10 μM; read-out: Percentage growth inhibition (GI%)
Description: The structures of all the newly prepared pyridine-ureas 8a–n were submitted to the National Cancer Institute (NCI) Developmental Therapeutic Program. Eight compounds 8b, 8d, 8e, 8i, 8j and 8l–n were selected to be examined for their in vitro growth inhibitory activity. The anticancer assays were carried out according to the protocol of the Drug Evaluation Branch, NCI, Bethesda. […]
What inhibition at 10 µM was measured for each of the following?
A number alone suffices; assume %.

Query (molecule): COc1ccc(-c2ccc(NC(=O)Nc3cccc(Cl)c3)c(C)n2)cc1OC ; field requested: inhibition at 10 µM
40

Form field: reported inhibition at 10 µM of COc1ccc(-c2ccc(NC(=O)Nc3cccc(C(F)(F)F)c3)c(C)n2)cc1
60

Tell me the measured inhibition at 10 µM of COc1ccc(-c2ccc(NC(=O)Nc3ccc(Cl)cc3)c(C)n2)cc1 , please.
15

# lookup: inhibition at 10 µM of COc1ccc(-c2ccc(NC(=O)Nc3ccc(Cl)c(C(F)(F)F)c3)c(C)n2)cc1
63

Need inhibition at 10 µM, item COc1ccc(-c2ccc(NC(=O)Nc3cccc(C(F)(F)F)c3)c(C)n2)cc1OC
52

* * *

Tested on: EKVX
test: NCI one-dose SRB assay (Non-Small Cell Lung Cancer)
Format: cell-based, human
study conditions: 1.00E-5 Molar
Record form. Attribute: Growth Percent. Fill in for each entry.
Report the figure in % without appending any unit label.

May I ask what Growth Percent has been recorded for COc1ccc(-c2ccc(NC(=O)Nc3cccc(C(F)(F)F)c3)c(C)n2)cc1OC [Compound 8i] ?
66.90

GET /values?readout=Growth Percent&item= COc1ccc(NC(=O)Nc2ccc(-c3ccc(OC)c(OC)c3)nc2C)cc1 [Compound 8n]
91.15

# get_value(readout='Growth Percent', item= COc1cccc(NC(=O)Nc2ccc(-c3ccc(OC)c(OC)c3)nc2C)c1 [Compound 8m] )
100.68

Request the reported Growth Percent associated with COc1ccc(-c2ccc(NC(=O)Nc3cccc(Cl)c3)c(C)n2)cc1OC [Compound 8j]
83.81

Which Growth Percent value belongs to COc1ccc(-c2ccc(NC(=O)Nc3ccc(Cl)cc3)c(C)n2)cc1 [Compound 8d] ?
92.90

Name the recorded Growth Percent for COc1ccc(-c2ccc(NC(=O)Nc3cccc(C(F)(F)F)c3)c(C)n2)cc1 [Compound 8b] .
41.42

So what's the measured Growth Percent for this one? COc1ccc(-c2ccc(NC(=O)Nc3ccc(Cl)c(C(F)(F)F)c3)c(C)n2)cc1 [Compound 8e]
49.19

Taken from paper PMC6100082.
